Hey, just so you know, these numbers are from patent US11285142B2.

- Test Protocol: Cytotoxicity (cell count, cellular morphology) in the Torsin1a assay cell line
- Format: cell-based, human
- Setup Conditions: human; Table 6; read-out: Cytotox AC50
Where a name gives a salt, the structure may show the parent alone.
Quantity Kind: AC50 (µM)

• CC(C)(C)NC(=O)[C@@H]1C[C@@H]2CCCC[C@@H]2CN1C[C@@H](O)[C@H](Cc1ccccc1)NC(=O)[C@H](CC(N)=O)NC(=O)c1ccc2ccccc2n1 [Saquinavir mesylate] = 20.9
• CC(C)(C)NC(=O)[C@@H]1CN(Cc2cccnc2)CCN1C[C@@H](O)C[C@@H](Cc1ccccc1)C(=O)N[C@H]1c2ccccc2C[C@H]1O [Indinavir sulfate] = 37.2
• Cc1cccc(C)c1OCC(=O)N[C@@H](Cc1ccccc1)[C@@H](O)C[C@H](Cc1ccccc1)NC(=O)[C@H](C(C)C)N1CCCNC1=O = 37.2
• Cc1c(O)cccc1C(=O)N[C@@H](CSc1ccccc1)[C@H](O)CN1C[C@H]2CCCC[C@H]2C[C@H]1C(=O)NC(C)(C)C = 10.5
